pIC50: −log10 of the molar value.
// merged dataset of pIC50 values, system = ERAP1 (Homo sapiens), multiple refs

                                 cpd_smiles          study_target  assay_result
0  O=C(O)c1ccc(Cl)c(S(=O)(=O)Nc2cc(C(F)(F)F)ccc2N2CCCCCC2)c1  ERAP1 (Homo sapiens)        > 6.30
1  Cn1nccc1-c1ccc(-n2cccc2)c(NS(=O)(=O)c2cc(C(=O)O)ccc2C2CC2)c1  ERAP1 (Homo sapiens)        > 6.30

For the molecule `CCc1ccc(C(=O)O)cc1S(=O)(=O)Nc1cc(-n2cnnn2)ccc1C1CCCCC1` , what pIC50 is on record? > 7.00

For the molecule `Cc1oncc1-c1cc(NS(=O)(=O)c2cc(C(=O)O)ccc2C2CC2)c(-n2cccc2)cc1F` , what pIC50 is on record? > 6.30
